All figures here come from PubChem BioAssay AID1996.

Conditions: buffer; pH 7.4; 200.0 µM
Consider the following compounds; for each one, report its solubility kinetic.

Exercise: Give a short answer stating reported solubility kinetic for Cn1c(N)c(C(C[N+](=O)[O-])c2c(F)cccc2Cl)c(=O)n(C)c1=O (centres undefined) .
Key: > 53.5 µg/mL

Exercise: Give a short answer stating reported solubility kinetic for CN(C(=O)c1ccc(Br)o1)C1CCS(=O)(=O)C1 (centres undefined) .
Key: > 48.3 µg/mL

Exercise: Give a short answer stating reported solubility kinetic for `CCn1ncc(-c2csc(N)n2)c1C` .
Key: > 31.2 µg/mL

Exercise: Give a short answer stating reported solubility kinetic for `Cc1cc(C(=O)Nc2ccc(F)cc2C)n(-c2ccccc2)n1` .
Key: > 46.4 µg/mL

###

Consider the following compounds; for each one, report its solubility kinetic.
Conditions: buffer; pH 7.4; 200.0 µM

Exercise: Give a short answer stating reported solubility kinetic for O=C1CC(c2ccccc2)CN1 (centres undefined) .
Key: > 24.2 µg/mL

Exercise: Give a short answer stating reported solubility kinetic for `Nc1ncnc2nc(SCCC(=O)O)[nH]c12` .
Key: > 35.9 µg/mL

Exercise: Give a short answer stating reported solubility kinetic for `O=c1[nH]cnc2ncc(-c3ccc(O)cc3)nc12` .
Key: > 36 µg/mL

Exercise: Give a short answer stating reported solubility kinetic for O=C1NC(=O)N(CC2CCCO2)C(=O)/C1=C/c1cccs1 (centres undefined) .
Key: > 46 µg/mL

Exercise: Give a short answer stating reported solubility kinetic for `COc1ccc(CC(=O)OCC(=O)NC2CC2)cc1` .
Key: > 39.5 µg/mL

Exercise: Give a short answer stating reported solubility kinetic for COc1ccc(N2CCN(C(=O)CN3C(=O)NC4(CCCCC4C)C3=O)CC2)cc1 (centres undefined) .
Key: > 62.2 µg/mL

Exercise: Give a short answer stating reported solubility kinetic for `N#Cc1sc(NCc2ccccn2)nc1Cl` .
Key: > 37.6 µg/mL

Exercise: Give a short answer stating reported solubility kinetic for CC(Sc1ccccc1)C(=O)NCCc1ccccc1 (centres undefined) .
Key: > 42.8 µg/mL

Exercise: Give a short answer stating reported solubility kinetic for `C[N+](C)(C)CC#CCOC(=O)Nc1cccc(Cl)c1.[Cl-]` .
Key: > 47.6 µg/mL

###

Conditions: buffer; pH 7.4; 200.0 µM
Consider the following molecules; for each one, report its solubility kinetic.

Exercise: Give a short answer stating reported solubility kinetic for COc1ccc(C2CC(=O)C(C=NCCCO)=C(O)C2)cc1 (configuration not stated) .
Key: > 45.5 µg/mL

Exercise: Give a short answer stating reported solubility kinetic for CCn1c(=N)n(CC(O)COc2ccc(C)cc2)c2ccccc21.Cl (configuration not stated) .
Key: > 54.3 µg/mL

Exercise: Give a short answer stating reported solubility kinetic for `Cc1ccc2cccc(NS(=O)(=O)c3ccccc3)c2n1` .
Key: < 0.3 µg/mL

Exercise: Give a short answer stating reported solubility kinetic for `Cc1cc(C(=O)N/N=C/c2cn(C)nc2C)c2ccccc2n1` .
Key: > 46.1 µg/mL

Exercise: Give a short answer stating reported solubility kinetic for `O=C(Cc1cccs1)NCc1cccc(Br)c1` .
Key: > 46.5 µg/mL

Exercise: Give a short answer stating reported solubility kinetic for `Cn1cc([N+](=O)[O-])c(C(=O)N/N=C/c2ccncc2)n1` .
Key: > 41.1 µg/mL

Exercise: Give a short answer stating reported solubility kinetic for `CCOC(=O)c1cc(C#N)c(N2CCNCC2)nc1C(F)(F)F` .
Key: > 49.2 µg/mL

Exercise: Give a short answer stating reported solubility kinetic for CCCC(C(=O)O)n1c(O)c(C=C2N=c3ccccc3=N2)sc1=S (configuration not stated) .
Key: > 54.2 µg/mL

Exercise: Give a short answer stating reported solubility kinetic for O=C(O)CSC1CC(=O)N(c2ccc(Br)cc2)C1=O (configuration not stated) .
Key: > 51.6 µg/mL

Exercise: Give a short answer stating reported solubility kinetic for `CN(C)CCn1c(COc2ccccc2)nc2ccccc21.Cl.O` .
Key: > 60.7 µg/mL

Exercise: Give a short answer stating reported solubility kinetic for `Fc1cc2[nH]cnc2cc1Cl` .
Key: > 25.6 µg/mL

Exercise: Give a short answer stating reported solubility kinetic for `CCNC(=O)c1cnn(-c2ccccc2)c1-c1ccccc1` .
Key: > 43.7 µg/mL
